TARGET: acetylcholine esterase
Sequence (P22303 32-614): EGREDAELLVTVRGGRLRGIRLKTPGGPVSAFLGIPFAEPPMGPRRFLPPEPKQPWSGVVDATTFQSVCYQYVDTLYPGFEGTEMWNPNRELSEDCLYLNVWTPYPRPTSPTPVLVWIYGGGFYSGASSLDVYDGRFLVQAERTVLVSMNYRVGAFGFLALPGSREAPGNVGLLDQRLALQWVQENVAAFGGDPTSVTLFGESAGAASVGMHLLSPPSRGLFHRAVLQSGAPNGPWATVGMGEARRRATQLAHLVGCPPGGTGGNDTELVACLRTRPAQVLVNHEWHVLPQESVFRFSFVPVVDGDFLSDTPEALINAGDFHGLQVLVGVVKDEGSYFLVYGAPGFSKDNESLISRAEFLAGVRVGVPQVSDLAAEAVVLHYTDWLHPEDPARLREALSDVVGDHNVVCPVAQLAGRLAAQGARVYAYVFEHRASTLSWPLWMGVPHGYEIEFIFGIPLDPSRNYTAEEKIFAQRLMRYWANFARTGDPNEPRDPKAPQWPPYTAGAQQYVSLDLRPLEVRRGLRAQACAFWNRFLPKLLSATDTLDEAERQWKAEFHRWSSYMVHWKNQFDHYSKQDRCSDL
PROTOCOL: Inhibition of acetylcholine esterase reaction (Experimental Example 3)
Structures can show the parent of a compound that is named as a salt.
MEASURED QUANTITY: Ki

Exercise: What does the data say about its Ki? Entry: CCOc1ccc2nc3c(c(CC)c2c1)Cn1c-3cc2c(c1=O)COC(=O)C2(CCF)OC(=O)CN (stereo not shown) [Example 1, hydrochloride]
Key: 20 to 40 µM
